The origin of these recorded values is patent US6022969A.

# measured_on: tryptase
# experiment_summary: In vitro tryptase inhibition assay (hydrolysis of tosyl-Gly-Pro-Lys-p-nitroanilide)
# details: tosyl-Gly-Pro-Lys-p-nitroanilide 0.5 mM, pH 8.2, 1 h pre-incubation, room temperature
Reported Ki by item:
Record the result as number plus unit.

Below, each entry is followed by its recorded Ki result.
| compound | experimental_endpoint | reported_value |
| --- | --- | --- |
| NCCC1CCC(C(=O)N2CCN(C(=O)O[C@H]3CCC[C@@H](OC(=O)N4CCN(C(=O)C5CCC(CCN)CC5)CC4)CCC3)CC2)CC1 (stereo partly drawn) | Ki | 9 nM |
| N=C(N)N1CCC(CCC(=O)N2CCN(C(=O)O[C@H]3CCC[C@@H](OC(=O)N4CCN(C(=O)CCC5CCN(C(=N)N)CC5)CC4)CCC3)CC2)CC1 | Ki | 2 nM |

Request: Look up and report measured Ki for this entry: `NC[C@H]1CC[C@H](CNC(=O)N2CCCN(C(=O)O[C@H]3CCC[C@@H](OC(=O)N4CCCN(C(=O)NC[C@H]5CC[C@H](CN)CC5)CC4)CCC3)CC2)CC1`
Response: 260 nM

Request: Determine its reported Ki: `NCC1CCN(C(=O)NCCCCNC(=O)O[C@H]2CCC[C@@H](OC(=O)NCCCCNC(=O)N3CCC(CN)CC3)CCC2)CC1`
Response: 734 nM

Request: Indicate its recorded Ki; the compound in question is `N=C(N)Nc1ccc(CNC(=O)N2CCN(C(=O)O[C@H]3CCC[C@@H](OC(=O)N4CCN(C(=O)NCCCN)CC4)CCC3)CC2)cc1`
Response: 44 nM

Request: Item `N=C(N)Nc1ccc(CNC(=O)N2CCN(C(=O)OCC34CCC(COC(=O)N5CCN(C(=O)NCc6ccc(NC(=N)N)cc6)CC5)(CC3)CC4)CC2)cc1` : provide Ki
Response: 0.42 nM
